src = ChEMBL document CHEMBL4177599

# System: Mycobacterium tuberculosis
# assayOverview: Antitubercular activity against fluoroquinolone-resistant Mycobacterium tuberculosis H37Rv harboring gyrB D94N mutant after 5 days
# Format: functional, organism-based
Threshold 50 µM: MIC strictly smaller gives y, otherwise n.

Sample answers from the record:
molecule: NNC(=O)c1ccncc1 [ISONIAZID]
category: y
//
molecule: CC(O)(Cn1cnc([N+](=O)[O-])n1)c1ccc(-c2ccc(C#N)cc2)cc1 (stereo unspecified)
category: n
//
molecule: O=C(Cn1cnc([N+](=O)[O-])n1)Nc1ccc(Oc2ccc(Cl)cc2)cc1
category: n
//
molecule: O=C(Cn1ccnc1[N+](=O)[O-])Nc1ccc(Oc2ccc(Cl)cc2)cc1
category: n
//
molecule: O=C(Cn1cnc([N+](=O)[O-])n1)Nc1nc(-c2ccc(F)c(F)c2)cs1
category: y
//
molecule: O=C(CCn1cnc([N+](=O)[O-])n1)Nc1ccc(Oc2ccc(F)cc2)cc1
category: y

Kindly review the next molecule as well.
Q: Does this molecule meet the criterion MIC < 50 µM? `O=C(Cn1cnc([N+](=O)[O-])n1)Nc1ccc(Oc2ccccc2)cc1`
Result: n
